System: UACC-62 melanoma
assay.explanation: NCI-60 one-dose screen, 48 h
conditions: 10 µM unless noted
About 83,000 compounds went through this panel and 20% of them were active in at least one assay; those are over-represented in the sample as a whole. Activity calls are given as the source filed them. Rule for the calls: active = growth percent below 10; inactive = the rest.
Respond only with the outcome that fits, drawn from yes (1) (active), no (0) (inactive)

molecule=CC1=NN(c2nc(SCC(=O)Nc3nc4ccc(C)cc4s3)nc(-c3ccccc3)c2C#N)C(=O)C1 class="no (0)"
molecule=COC(=O)c1c2c(c[n+]([O-])c1C)C(=O)C(NCc1ccccc1)=CC2=O class="yes (1)"
molecule=O=C(NNC(=O)c1ccc(-n2cc(-c3ccccc3)nn2)cc1)Nc1ccccc1 class="no (0)"

Outcome logged for C=C1CC[C@@H]2[C@](C)(COC(C)=O)[C@H](OC(C)=O)CC[C@@]2(C)[C@@H]1CC(Sc1ccccc1)C1=CCOC1=O (some centres undefined) in this assay:
yes (1)

----------
System: MALME-3M melanoma
assay.explanation: NCI-60 one-dose screen, 48 h (100 = growth as untreated, 0 = no growth, -100 = all killed)
conditions: 10 µM unless noted
The panel holds about 83,000 compounds, 20% with a hit somewhere; the sample as a whole holds those more often.
// returns NO unless growth is strictly below 90%, in which case YES

compound=O=C1N[C@@H]2NC(=[N+]3CCOCC3)N[C@@H]2N1 assayed_system="MALME-3M melanoma" class=NO

Report whether reported growth is lower than 90% (strictly) for O=C(CCCCCCN1CC(=O)N2[C@H](c3cc(Br)cs3)c3[nH]c4ccccc4c3C[C@H]2C1=O)NO
YES

Would you kindly verify if growth of CSc1nnc(-c2cnn3c2NC(c2ccccc2)C3)n1-c1ccc(C(F)(F)F)cc1 (stereo not given) is strictly less than 90%?
YES

Just wondering, is growth of CC[C@]12C=CCN3CC[C@@]4(c5cc(NC(=O)CCC(=O)OCc6cn(Cc7ccc(F)cc7)nn6)c(OC)cc5N(C)[C@H]4[C@@](O)(C(=O)OC)[C@@H]1OC(C)=O)[C@@H]32 below 90%?
NO

----------
Tested on: NCI-H226 lung
assay.explanation: NCI-60 one-dose screen, 48 h (100 = growth as untreated, 0 = no growth, -100 = all killed)
conditions: 10 µM unless noted
About 83,000 compounds went through this panel and 20% of them were active in at least one assay; those are over-represented in the sample as a whole.
Listed here: items and their measured growth.
# output: bare number, implied unit %

Specify reported growth for the compound shown: CNC(=O)c1cc(Oc2ccc3nc(NC(C)=O)sc3c2)ccn1
101

Read the entry O=C(O)/C(=C\c1ccc(Cl)cc1)c1ccc(Cl)cc1 and write its reported growth.
99.1

Return the recorded growth value; entry: Cc1ccc(-c2nc(N3CCNCC3)c3oc(-c4ccccc4)nc3n2)cc1
110

Return value of growth for input COc1ccc(/C=C2\COc3ccc(O)c(O)c3C2=O)cc1 , no commentary.
67.4

Please supply the value of reported growth for the item CN(C)C1CCN(Cc2ccc(NC(=O)c3cncc(C#Cc4cnc(N)c5ncccc45)c3)cc2C(F)(F)F)CC1
90

----------
System: MCF7 breast
assay.explanation: NCI-60 one-dose screen, 48 h
conditions: 10 µM unless noted
Method: Growth inhibition of the MCF7 human tumor cell line is measured as a screen for anti-cancer activity. Cells are grown in 96 well plates and exposed to the test compound for 48 hours. Compounds are tested at a single concentration, which is 10^-5 M for most compounds. The reported endpoint is percent growth (GI% or GIPRCNT), where numbers from 0 - 100% represent growth inhibition, and numbers from -100% - 0 represent cell death. For example, a value of 40 represents 60% growth inhibition. […]
The panel holds about 83,000 compounds, 20% with a hit somewhere; the sample as a whole holds those more often. The source made the active and inactive calls. How the source made its calls: active means growth percent below 10; inactive means the rest.
# valid calls are active, inactive; nothing else

Past entries and their recorded results:
compound=Oc1c(Cl)cc(Cl)c2ccc(Cn3cc(-c4cc(F)cc(F)c4)nn3)nc12 assayed_system="MCF7 breast" class=inactive
compound=C#Cc1ccc(NC(=O)c2ccc(/C=C/C(=O)c3nccn3C)cc2)cc1 assayed_system="MCF7 breast" class=active
compound=CCCCOC(=O)OCc1cc(=O)c(O)co1 assayed_system="MCF7 breast" class=inactive
compound=C#COc1cccc(Nc2ncnc3ncc(NC(=O)CCl)cc23)c1 assayed_system="MCF7 breast" class=active
compound=O=C(/C=C(/C=C/c1cccc2[nH]ccc12)OB(F)F)/C=C/c1cccc2[nH]ccc12 assayed_system="MCF7 breast" class=active
compound=CCN(C(=O)N1CCN(c2cc3c(cc2F)c(=O)c(C(=O)O)cn3C2CC2)CC1)c1nc(-c2ccc(Cl)cc2)cs1 assayed_system="MCF7 breast" class=active
compound=CCNc1cc(-c2cccc(OC(F)(F)F)c2)nc2ccc(N3CCCC3)cc12 assayed_system="MCF7 breast" class=active
compound=CC(C)(C)c1cc(-c2nc3ccc(N4CCN(S(C)(=O)=O)CC4)cc3[nH]2)cc(C(C)(C)C)c1O assayed_system="MCF7 breast" class=inactive
compound="N#CC1=C(N)Oc2c(sc3c(F)cccc23)C1c1ccc(F)cc1 (centres undefined)" assayed_system="MCF7 breast" class=inactive
compound=N#Cc1c(N)nnn1Cc1cc(=O)oc2c1ccc1ccccc12 assayed_system="MCF7 breast" class=inactive

# lookup: test call for COC(=O)c1c2c(c(C)[n+]([O-])c1C)C(=O)C=C(NCc1ccc(Br)cc1)C2=O
active

Tell me the assay call for Cn1cc(-c2nc(-c3c[nH]c4ccncc34)cs2)c2ccccc21 please.
active

Call for entry Fc1cc(F)cc(C(c2c[nH]c3ccccc23)c2c[nH]c3ccccc23)c1 :
inactive

Tell me the assay call for CN(C)c1ccc(Nc2cc(-c3cccc(OC(F)(F)F)c3)nc3ccc(N4CCCC4)cc23)cc1 please.
active
